Assay Overview: Antiproliferative activity against human NCI-H460 cells assessed as cell growth at 10 uM measured after 48 hrs by sulforhodamine B assay relative to control
Assay type: functional
Measurement Parameters: NCI-H460, 48 h, read-out: Activity
Mark true only when growth at 10 µM stays strictly below 10%. Values equal to the cut-off are false.

| Query Smiles | Group |
| --- | --- |
| c1ccc2cc(Cn3cc[n+](Cc4ccc5ccccc5c4)c3)ccc2c1 | false |
| CCCc1n(Cc2ccc3ccccc3n2)cc[n+]1Cc1ccc2ccccc2n1.[Cl-] | false |
| CCCc1n(Cc2ccc3ccccc3n2)cc[n+]1Cc1ccc2ccccc2c1.[Cl-] | true |
| CCc1n(Cc2ccc3ccccc3n2)cc[n+]1Cc1ccc2ccccc2c1.[Br-] | false |
| OCc1n(Cc2ccc3ccccc3c2)cc[n+]1Cc1ccc2ccccc2c1.[Br-] | false |
| Cc1n(Cc2ccc3ccccc3n2)cc[n+]1Cc1ccc2ccccc2n1.[Cl-] | false |
| [Br-].c1ccc(-c2n(Cc3ccc4ccccc4c3)cc[n+]2Cc2ccc3ccccc3c2)cc1 | true |
| CCc1n(Cc2ccc3ccccc3n2)cc[n+]1Cc1ccc2ccccc2n1.[Cl-] | false |
| CCCCc1n(Cc2ccc3ccccc3n2)cc[n+]1Cc1ccc2ccccc2n1.[Cl-] | false |

###

Assay Overview: Growth inhibition of human NCI-H23 cells measured after 48 hrs by sulforhodamine B assay
Format: functional
Measurement Parameters: NCI-H23, 48 h
In this section we review reported GI50 values for a set of compounds.

| Query Smiles | GI50 |
| --- | --- |
| CCc1n(Cc2ccc3ccccc3n2)cc[n+]1Cc1ccc2ccccc2c1.[Br-] | 311 nM |
| CCCc1n(Cc2ccc3ccccc3n2)cc[n+]1Cc1ccc2ccccc2n1.[Cl-] | 865 nM |
| CCc1n(Cc2ccc3ccccc3n2)cc[n+]1Cc1ccc2ccccc2n1.[Cl-] | 275 nM |
| CCCc1n(Cc2ccc3ccccc3n2)cc[n+]1Cc1ccc2ccccc2c1.[Cl-] | 479 nM |
| CCCCc1n(Cc2ccc3ccccc3n2)cc[n+]1Cc1ccc2ccccc2n1.[Cl-] | 480 nM |
| [Br-].c1ccc(-c2n(Cc3ccc4ccccc4c3)cc[n+]2Cc2ccc3ccccc3c2)cc1 | 775 nM |
| c1ccc2cc(Cn3cc[n+](Cc4ccc5ccccc5c4)c3)ccc2c1 | 901 nM |
| Cc1n(Cc2ccc3ccccc3n2)cc[n+]1Cc1ccc2ccccc2c1.[Br-] | 1830 nM |

###

Assay Overview: Growth inhibition of human HOP62 cells measured after 48 hrs by sulforhodamine B assay
Format: functional
Measurement Parameters: HOP-62, 48 h
In this section we review reported TGI values for a set of compounds.

| Query Smiles | TGI [µM] |
| --- | --- |
| CCCCc1n(Cc2ccc3ccccc3n2)cc[n+]1Cc1ccc2ccccc2n1.[Cl-] | 12 |
| c1ccc2cc(Cn3cc[n+](Cc4ccc5ccccc5c4)c3)ccc2c1 | 17 |
| CCCc1n(Cc2ccc3ccccc3n2)cc[n+]1Cc1ccc2ccccc2n1.[Cl-] | 19.4 |
| Cc1n(Cc2ccc3ccccc3n2)cc[n+]1Cc1ccc2ccccc2c1.[Br-] | 6.66 |
| CCCc1n(Cc2ccc3ccccc3n2)cc[n+]1Cc1ccc2ccccc2c1.[Cl-] | 5.38 |
| CCc1n(Cc2ccc3ccccc3n2)cc[n+]1Cc1ccc2ccccc2c1.[Br-] | 7.02 |
| [Br-].c1ccc(-c2n(Cc3ccc4ccccc4c3)cc[n+]2Cc2ccc3ccccc3c2)cc1 | 3.23 |
| CCc1n(Cc2ccc3ccccc3n2)cc[n+]1Cc1ccc2ccccc2n1.[Cl-] | 31.5 |
